- tested-system: full-length recombinant human FYN A (Homo sapiens (Human), UniProt P06241)
- Sequence (P06241 whole entry): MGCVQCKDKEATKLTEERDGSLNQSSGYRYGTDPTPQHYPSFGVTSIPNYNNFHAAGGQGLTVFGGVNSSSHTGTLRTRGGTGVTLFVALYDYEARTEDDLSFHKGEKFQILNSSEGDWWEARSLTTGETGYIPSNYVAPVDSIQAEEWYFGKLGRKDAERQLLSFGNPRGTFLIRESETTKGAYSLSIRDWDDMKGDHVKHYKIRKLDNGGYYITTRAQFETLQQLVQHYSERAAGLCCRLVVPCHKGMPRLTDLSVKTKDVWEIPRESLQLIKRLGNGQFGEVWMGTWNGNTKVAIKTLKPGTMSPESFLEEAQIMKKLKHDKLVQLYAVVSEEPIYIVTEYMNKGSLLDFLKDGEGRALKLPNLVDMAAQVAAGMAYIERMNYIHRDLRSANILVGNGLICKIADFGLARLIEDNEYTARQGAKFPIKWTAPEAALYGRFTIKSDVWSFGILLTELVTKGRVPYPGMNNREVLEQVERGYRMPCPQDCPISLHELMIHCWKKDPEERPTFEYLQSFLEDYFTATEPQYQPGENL
- assay-remarks: ADP-Glo Kinase Assay of FYN kinase inhibition
- Assay type: biochemical
- stated-conditions: secondary screen, re-synthesized and expanded compounds
The threshold is 600 nM. Values of IC50 beneath it are tagged satisfied; values meeting or exceeding it are tagged not satisfied.

COc1ccc(-c2cnc3sc(NCC4CCOCC4)nn23)cc1OC [BF000817208]	not satisfied
COc1cc(-c2cnc3ccc(NCCCO)nn23)ccc1O [BF000146250]	satisfied
CC(=O)Nc1cccc(-c2cnc(N)c(-c3ccc(O)cc3)c2)c1 [BF000313562]	not satisfied
CC(=O)c1cccc(-c2cnc3ccc(NCCCO)nn23)c1 [BF000817098]	not satisfied
COc1cc(-c2cnc3cnc(-c4ccc(C(=O)NCCN(C)C)cc4)cn23)ccc1O [BF000334023]	satisfied
CN(C)C(=O)c1cccc(-c2cnc3sc(NCc4ccccc4)nn23)c1 [BF000714847]	not satisfied
COc1ccc(-c2cnc3ccc(NCc4ccccn4)nn23)cc1OC [BF000147233]	satisfied
COc1cc(-c2cc(-c3cccc(O)c3)cnc2N)cc(OC)c1OC [BF000312527]	satisfied
OCCCNc1ccc2ncc(-c3ccncc3)n2n1 [BF000722253]	satisfied

* * *

- tested-system: full-length recombinant human FYN A (Homo sapiens (Human))
- assay-remarks: ADP-Glo Kinase Assay of FYN kinase inhibition
- Type: biochemical
- stated-conditions: primary screen, initial compounds
Listed below: IC50 values for each entry.
observable: IC50 (nM)

CS(=O)(=O)Nc1cccc(-c2ccc3ncc(-c4cccs4)n3n2)c1 [Compound 359]	1210
COc1ccc(Nc2ccn3ncc(-c4cccc(O)c4)c3n2)cn1 [294_0042_0284]	3390
COc1cccc(-c2ccc3ncc(-c4cccc(C(C)=O)c4)n3n2)c1 [Compound 428]	1780
CN1CCN(c2ccc(Nc3cc4c(cn3)cc(-c3ccccc3)n4Cc3ccccc3)cc2)CC1 [Compound 311]	15000
Oc1cccc(-c2ccc3ncc(-c4cccnc4)n3n2)c1 [Compound 440]	1810
c1ccc(CNc2ccc3ncc(-c4ccc5c(c4)OCO5)n3n2)nc1 [229_4007_0068]	797
COc1cc(-c2cc(-c3cccc(N(C)C)c3)cnc2N)cc(OC)c1OC [382_0087_0135]	595
O=C(NCCO)c1cccc(-c2ccc3ncc(-c4ccccc4)n3n2)c1 [Compound 424]	13900
COc1ccc(-c2cnc3ccc(-c4ccncc4)nn23)cc1OC [Compound 395]	404
CS(=O)(=O)Nc1cccc(-c2cnc3sc(NC4CCCCC4)nn23)c1 [Compound 568]	4330
COc1cc(-c2cnc3ccc(-c4ccccc4OC)nn23)ccc1O [Compound 385]	959
COc1cc(-c2cc(-c3ccc(OCCCN(C)C)nc3)cnc2N)cc(OC)c1OC [382_0087_0002]	530
Cc1cccc(Cc2ccc3ncc(-c4cccc(C(N)=O)c4)n3n2)c1 [Compound 484]	2170
NC(=O)c1ccc(-c2ccc3ncc(-c4ccccc4)n3n2)cc1 [Compound 350]	2140
COc1cccc(-c2cnc3ccc(NC4CCOCC4)nn23)c1 [229_0242_4140]	870
Oc1ccc(-c2cn3c(-c4cccs4)cnc3cn2)cc1 [388_4147_0080]	6250
c1ccc(-c2ccc3ncc(-c4ccncc4)n3n2)cc1 [Compound 340]	229
Oc1ccc(-c2cnc3ccc(NCc4ccc5c(c4)OCO5)nn23)cc1 [229_0236_0080]	5670
COc1ccc(-c2cnc3sc(NCCc4ccncc4)nn23)cn1 [Compound 552]	2030
CN(C)CCCOc1ccc(-c2cnc(N)c(-c3cccc(N(C)C)c3)c2)cn1 [382_0135_0002]	4660
CC(=O)c1ccc(-c2cnc(N)c(-c3cccc(N(C)C)c3)c2)s1 [Compound 541]	3420
COc1ccc(-c2cncc(-c3ccc(O)c(OC)c3)n2)cc1 [035_0280_0314]	5180
COc1ccc(-c2cnc(N)c(-c3ccc(O)c(OC)c3)c2)cc1 [382_0314_0280]	4160
COc1ccccc1-c1n[nH]c2nccc(/C=C/c3ccccc3)c12 [Compound 500]	1130
COc1cncc(-c2ccc3ncc(-c4cccs4)n3n2)c1 [Compound 452]	2860
COc1cc(-c2cnc(N)c(-c3cccc(O)c3)c2)cc(OC)c1OC [382_0284_0087]	1020
CC(=O)Nc1cccc(-c2cnc3ccc(-c4ccc(S(C)(=O)=O)cc4)nn23)c1 [Compound 278]	1080
COc1cc(-c2n[nH]c3nccc(-c4ccc(CO)cc4)c23)cc(OC)c1OC [Compound 519]	5380
COc1ccccc1-c1n[nH]c2nccc(-c3ccc(N4CCOCC4)cc3)c12 [Compound 489]	1390
NC(=O)c1cccc(-c2ccnc3[nH]nc(-c4ccccc4)c23)c1 [Compound 536]	11700
CC(=O)Nc1cccc(-c2ccc3ncc(-c4cccc(C(=O)NCCN(C)C)c4)n3n2)c1 [Compound 465]	3170
COc1ccc(-c2ccc3ncc(-c4ccc(OC)c(OC)c4)n3n2)cc1OC [Compound 416]	538
Cn1cc(-c2cnc3sc(NCc4ccco4)nn23)cn1 [Compound 580]	5640
CC(=O)Nc1cccc(-c2cnc3ccc(-c4ccc(F)c(Cl)c4)nn23)c1 [Compound 434]	525
COc1cc(-c2cc(-c3cc4ccccc4s3)cnc2N)cc(OC)c1OC [382_0087_0076]	2690
COc1ccc(-c2ccc3ncc(-c4ccncc4)n3n2)cc1OC [Compound 400]	282

* * *

In this section we review reported log10 IC50 values for a set of compounds.
- tested-system: full-length recombinant human FYN A (Homo sapiens (Human), UniProt P06241)
- assay-remarks: ADP-Glo Kinase Assay of FYN kinase inhibition
- Format: biochemical
- stated-conditions: secondary screen, re-synthesized and expanded compounds
observable: log10 IC50 (log10 of the value in nM)

COc1cc(-c2cc(-c3ccc(N4CCN(C)CC4)cc3)cnc2N)cc(OC)c1OC	2.37
CN(C)C(=O)c1cccc(-c2cnc3sc(NC4CCC(O)CC4)nn23)c1 (stereo not drawn)	2.46
COc1ccc(-c2cnc3ccc(NCc4ccc5c(c4)OCO5)nn23)cc1OC	3.79
COc1cc(-c2cc(-c3cccc(C(=O)NCCO)c3)cnc2N)cc(OC)c1OC	3.00
CN(C)CCCNC(=O)c1ccc(-c2cn3c(-c4ccc(O)cc4)cnc3cn2)cc1	2.85
CN1CCN(c2ccc(-c3cnc(N)c(-c4ccc(O)cc4)c3)cc2)CC1	2.72
CN(C)CCNC(=O)c1ccc(-c2cn3c(-c4ccc(O)cc4)cnc3cn2)cc1	2.69
COc1cc(-c2cc(-c3ccc(C(N)=O)cc3)cnc2N)ccc1O	2.33
OCc1cccc(-c2cnc3ccc(-c4cccc(O)c4)nn23)c1	3.07
CC(=O)Nc1cccc(-c2cnc3ccc(N[C@H](CO)C(C)C)nn23)c1	2.90
CC(=O)c1cccc(-c2cnc3ccc(NCc4ccc5c(c4)OCO5)nn23)c1	3.50
OCc1cccc(-c2ccc3ncc(-c4cccc(CO)c4)n3n2)c1	2.92
c1ccc(CNc2ccc3ncc(-c4ccncc4)n3n2)nc1	2.23
CN1CCN(c2ccc(-c3cn4c(-c5ccc(O)cc5)cnc4cn3)cc2)CC1	2.67
COc1cc(-c2cnc3cnc(-c4ccc(C(=O)NCCCN(C)C)cc4)cn23)ccc1O	2.81
COc1cc(-c2cnc3ccc(-c4cccc(CO)c4)nn23)ccc1O	1.80
COc1cc(-c2cc(-c3ccc(C(N)=O)cc3)cnc2N)cc(OC)c1OC	2.66
COc1cc(-c2cc(-c3cccc(NS(C)(=O)=O)c3)cnc2N)cc(OC)c1OC	2.75
c1cc(-c2cnc3ccc(NC4CCOCC4)nn23)ccn1	2.43
CN(C)CCCNC(=O)c1ccc(-c2cn3c(-c4ccc(Oc5ccccc5)cc4)cnc3cn2)cc1	2.39
COc1ccc(-c2cnc3ccc(NC4CCOCC4)nn23)cc1OC	2.68
c1ccc(CNc2nn3c(-c4cccnc4)cnc3s2)cc1	2.80
CC(=O)Nc1cccc(-c2ccc3ncc(-c4cccc(CO)c4)n3n2)c1	3.18
CC(=O)Nc1cccc(-c2cnc3ccc(-c4cccc(CO)c4)nn23)c1	2.64
Nc1cccc(-c2cnc3ccc(NC4CCOCC4)nn23)c1	3.15
NC(=O)c1ccc(-c2cnc(N)c(-c3ccc(O)cc3)c2)cc1	3.04
COc1cncc(-c2cnc3sc(NCc4ccc5c(c4)OCO5)nn23)c1	2.46
COc1cc(-c2cnc3ccc(-c4ccc(CO)cc4)nn23)ccc1O	1.79
COc1cc(-c2cnc3ccc(-c4ccc(OC)c(OC)c4)nn23)ccc1O	1.60
CCCNc1ccc2ncc(-c3cccc(C(C)=O)c3)n2n1	2.61
OCc1cccc(-c2cnc3ccc(-c4ccncc4)nn23)c1	2.99
COc1cc(-c2cc(-c3ccc(C(=O)NC4CC4)cc3)cnc2N)cc(OC)c1OC	2.58
COc1cc(-c2cc(-c3ccc(N4CCNCC4)cc3)cnc2N)ccc1O	1.78
COc1cc(-c2cc(-c3ccc(N4CCOCC4)cc3)cnc2N)ccc1O	2.33
COc1cc(-c2cnc3cnc(-c4cccc(C(=O)NCCO)c4)cn23)ccc1O	3.11
CC(C)[C@@H](CO)Nc1ccc2ncc(-c3ccncc3)n2n1	2.80
